- target.desc: human serum albumin (HSA) (Homo sapiens)
- Sequence (P02768 25-609): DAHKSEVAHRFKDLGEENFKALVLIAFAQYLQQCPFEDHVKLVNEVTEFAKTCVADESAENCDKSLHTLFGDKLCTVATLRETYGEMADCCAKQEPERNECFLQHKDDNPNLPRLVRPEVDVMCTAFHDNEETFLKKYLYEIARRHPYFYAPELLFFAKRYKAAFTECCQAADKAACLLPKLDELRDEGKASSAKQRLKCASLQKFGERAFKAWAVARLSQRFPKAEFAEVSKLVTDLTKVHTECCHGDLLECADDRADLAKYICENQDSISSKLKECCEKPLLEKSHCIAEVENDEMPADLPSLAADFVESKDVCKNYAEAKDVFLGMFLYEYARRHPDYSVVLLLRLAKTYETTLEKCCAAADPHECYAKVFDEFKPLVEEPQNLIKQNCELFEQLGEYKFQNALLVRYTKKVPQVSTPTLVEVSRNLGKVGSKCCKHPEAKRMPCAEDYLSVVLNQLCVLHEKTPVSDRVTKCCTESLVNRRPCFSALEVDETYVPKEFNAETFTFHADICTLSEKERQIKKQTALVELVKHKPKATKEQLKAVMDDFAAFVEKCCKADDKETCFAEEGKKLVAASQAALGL
- method.notes: HSA binding by high performance affinity chromatography (HiPAC)
- Assay type: in vitro ADME
- Parameters: purchased Daicel, Tokyo, Japan H13H-2433
- test.settings: lutetium-complexed; Chiralpak HSA column
experimental.readout: HSA-binding HiPAC (%)

1) CC(C)(C)[Si](F)(c1ccc(C(=O)NC[C@@H](NC(=O)CN2CCN(CC(=O)O)CCN(CC(=O)O)CCN(CC(=O)O)CC2)C(=O)N[C@H](CCCCNC(=O)CCC(=O)NCCC[C@@H](NC(=O)CC[C@H](NC(=O)N[C@@H](CCC(=O)O)C(=O)O)C(=O)O)C(=O)O)C(=O)O)cc1)C(C)(C)C [rhPSMA-10, reference compound] : 94.0
2) CC(C)(C)[Si](O)(c1ccc(C(=O)N[C@H](CCC(=O)NC[C@@H](NC(=O)CC[C@@H](C(=O)O)N2CCN(CC(=O)O)CCN(CC(=O)O)CCN(CC(=O)O)CC2)C(=O)NCCCCCC(=O)NCCC[C@@H](NC(=O)CC[C@H](NC(=O)N[C@@H](CCC(=O)O)C(=O)O)C(=O)O)C(=O)O)C(=O)O)cc1)C(C)(C)C : 97.8
3) CC(C)(C)[Si](O)(c1ccc(C(=O)NC[C@@H](NC(=O)CC[C@@H](C(=O)O)N2CCN(CC(=O)O)CCN(CC(=O)O)CCN(CC(=O)O)CC2)C(=O)N[C@H](CO)C(=O)NCCC(=O)NCCC(=O)NCCC[C@@H](NC(=O)CC[C@H](NC(=O)N[C@@H](CCC(=O)O)C(=O)O)C(=O)O)C(=O)O)cc1)C(C)(C)C : 86.3
4) CC(C)(C)[Si](O)(c1ccc(C[N+](C)(C)CC(=O)NCCC[C@@H](NC(=O)CC[C@@H](C(=O)O)N2CCN(CC(=O)O)CCN(CC(=O)O)CCN(CC(=O)O)CC2)C(=O)NCCCCCC(=O)NCCC[C@@H](NC(=O)CC[C@H](NC(=O)N[C@@H](CCC(=O)O)C(=O)O)C(=O)O)C(=O)O)cc1)C(C)(C)C : 31.3
5) CC(C)(C)[Si](F)(c1ccc(C(=O)NC[C@@H](NC(=O)CC[C@@H](C(=O)O)N2CCN(CC(=O)O)CCN(CC(=O)O)CCN(CC(=O)O)CC2)C(=O)N[C@H](CCCCNC(=O)CCC(=O)NCCC[C@@H](NC(=O)CC[C@H](NC(=O)N[C@@H](CCC(=O)O)C(=O)O)C(=O)O)C(=O)O)C(=O)O)cc1)C(C)(C)C [rhPSMA-7.3, reference compound] : 98.5
6) CC(C)(C)[Si](O)(c1ccc(C(=O)NC[C@@H](NC(=O)CCCCCNC(=O)CCCNC(=O)CC[C@@H](NC(=O)CCC(NC(=O)N[C@@H](CCC(=O)O)C(=O)O)C(=O)O)C(=O)O)C(=O)NCC(=O)N[C@@H](CCCCNC(=O)CC[C@@H](C(=O)O)N2CCN(CC(=O)O)CCN(CC(=O)O)CCN(CC(=O)O)CC2)C(=O)O)cc1)C(C)(C)C (some centres unmarked) : 85.8
7) O=C(O)CC[C@H](NC(=O)N[C@@H](CCCCNC(=O)[C@H](Cc1ccc2ccccc2c1)NC(=O)[C@H]1CC[C@H](CNC(=O)CN2CCN(CC(=O)O)CCN(CC(=O)O)CCN(CC(=O)O)CC2)CC1)C(=O)O)C(=O)O [PSMA-617, reference compound] : 74.7
8) CC(C)(C)[Si](O)(c1ccc(C(=O)NC[C@@H](NC(=O)CC[C@@H](C(=O)O)N2CCN(CC(=O)O)CCN(CC(=O)O)CCN(CC(=O)O)CC2)C(=O)N[C@H](CCCCNC(=O)CCC(=O)NCCC[C@@H](NC(=O)CC[C@H](NC(=O)N[C@@H](CCC(=O)O)C(=O)O)C(=O)O)C(=O)O)C(=O)O)cc1)C(C)(C)C : 96.4

The reported numbers originate from patent US20230277698A1.
